For each entry below, report its pIC50 value.
Study target: Acetylcholinesterase (Electrophorus electricus)
Sequence (O42275 whole entry): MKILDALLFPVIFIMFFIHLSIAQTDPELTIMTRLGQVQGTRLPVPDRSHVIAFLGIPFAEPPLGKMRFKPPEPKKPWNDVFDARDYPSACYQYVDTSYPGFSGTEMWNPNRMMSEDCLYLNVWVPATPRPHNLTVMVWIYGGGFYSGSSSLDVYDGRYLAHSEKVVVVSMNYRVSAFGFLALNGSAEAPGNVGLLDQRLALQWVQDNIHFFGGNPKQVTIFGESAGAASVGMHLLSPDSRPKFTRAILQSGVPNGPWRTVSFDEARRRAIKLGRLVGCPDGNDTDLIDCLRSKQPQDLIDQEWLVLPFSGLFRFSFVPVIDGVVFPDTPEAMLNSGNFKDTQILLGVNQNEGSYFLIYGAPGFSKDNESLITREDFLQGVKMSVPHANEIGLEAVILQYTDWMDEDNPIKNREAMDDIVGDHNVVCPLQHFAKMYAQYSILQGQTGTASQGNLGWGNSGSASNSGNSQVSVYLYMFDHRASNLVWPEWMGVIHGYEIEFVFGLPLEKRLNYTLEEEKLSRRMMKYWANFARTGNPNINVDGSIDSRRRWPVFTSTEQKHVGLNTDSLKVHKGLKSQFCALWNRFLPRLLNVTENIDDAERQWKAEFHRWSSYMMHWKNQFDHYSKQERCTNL
Answers are plain numbers, as −log10 of the molar value.

Examples from the recorded data:
> print(dat)
                                 smiles.str  reported
1   O=C(NCCO)c1cnc2c3c(cccc13)-c1ccccc1C2=O      4.74
2  C[N+](C)(C)CCCNC(=O)c1cnc2c3c(cccc13)-c1ccccc1C2=O      5.50

Give pIC50 for all compounds that follow.
1. C[N+](C)(C)CCNC(=O)c1cnc2c3c(cccc13)-c1ccccc1C2=O
2. CC[N+](C)(CC)CCCNC(=O)c1cnc2c3c(cccc13)-c1ccccc1C2=O
3. C[N+]1(CCCNC(=O)c2cnc3c4c(cccc24)-c2ccccc2C3=O)CCCCC1

Result:
1: 5.48; 2: 6.19; 3: 6.96

====

For each entry below, report its pIC50 value.
Study target: Cholinesterase (Equus caballus)
Sequence (P81908 whole entry): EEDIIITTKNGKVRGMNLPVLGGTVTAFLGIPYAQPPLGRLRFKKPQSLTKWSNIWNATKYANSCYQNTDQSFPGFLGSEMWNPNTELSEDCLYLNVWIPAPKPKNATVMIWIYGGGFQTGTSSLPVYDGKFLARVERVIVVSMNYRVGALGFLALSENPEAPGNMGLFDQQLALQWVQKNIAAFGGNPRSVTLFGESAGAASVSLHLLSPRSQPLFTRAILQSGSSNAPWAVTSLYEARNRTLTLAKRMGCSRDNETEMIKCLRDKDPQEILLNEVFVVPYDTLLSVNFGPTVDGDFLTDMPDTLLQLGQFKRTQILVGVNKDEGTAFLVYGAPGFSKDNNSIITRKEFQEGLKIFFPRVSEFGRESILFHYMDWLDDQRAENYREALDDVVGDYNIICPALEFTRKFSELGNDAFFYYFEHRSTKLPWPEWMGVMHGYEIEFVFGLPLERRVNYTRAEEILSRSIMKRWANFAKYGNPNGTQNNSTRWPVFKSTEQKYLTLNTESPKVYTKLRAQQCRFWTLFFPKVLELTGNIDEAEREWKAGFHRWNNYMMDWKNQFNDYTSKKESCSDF
Test: Inhibition of equine serum BuChE by Ellman's method
Numbers only, as −log10 of the molar value.

> print(dat)
                                 smiles.str                     study.target  endpoint.label  reported
1  CC[N+](C)(CC)CCNC(=O)c1cnc2c3c(cccc13)-c1ccccc1C2=O  Cholinesterase (Equus caballus)           pIC50      5.09

Please supply pIC50 for each of the following items, keeping them in order.
1. C[N+]1(CCNC(=O)c2cnc3c4c(cccc24)-c2ccccc2C3=O)CCCCC1
2. C[N+]1(CCCNC(=O)c2cnc3c4c(cccc24)-c2ccccc2C3=O)CCCCC1
3. C[N+]1(CCCNC(=O)c2cnc3c4c(cccc24)-c2ccccc2C3=O)CCOCC1
4. C[N+](C)(C)CCC(=O)Nc1ccc2c(c1)C(=O)c1cccc3ccnc-2c13

Result:
1: 5.17; 2: 5.20; 3: 5.32; 4: 5.55

For each of the molecules below, state pIC50.
1. C[N+]1(CCNC(=O)c2cnc3c4c(cccc24)-c2ccccc2C3=O)CCOCC1
2. O=C(NCCO)c1cnc2c3c(cccc13)-c1ccccc1C2=O

Result:
1. 4.93
2. 4.16

Lab note: each molecule below needs its pIC50 filled in.
1. O=C(NCCCO)c1cnc2c3c(cccc13)-c1ccccc1C2=O
2. C[N+](C)(C)CCNC(=O)c1cnc2c3c(cccc13)-c1ccccc1C2=O

Result:
1: 4.27; 2: 5.30

====

pKi, Acetylcholinesterase (Electrophorus electricus), per-entry values.
Answers are plain numbers, as −log10 of the molar value.

Illustrative cases are given below, each with its answer.
> print(dat)
                                 smiles.str  endpoint.label  reported
1  C[N+]1(CCCNC(=O)c2cnc3c4c(cccc24)-c2ccccc2C3=O)CCCCC1             pKi      6.96
2  C[N+]1(CCC(=O)Nc2ccc3c(c2)C(=O)c2cccc4ccnc-3c24)CCCCC1             pKi      9.51
3              O=C1c2ccccc2-c2cccc3ccnc1c23             pKi      4.84

Task: What pKi value was documented for this molecule, Nc1ccc2c(c1)C(=O)c1cccc3ccnc-2c13 ?
Result: 5.41

====

Reported IC50 for target or system Acetylcholinesterase (Electrophorus electricus, UniProt O42275), by entry.
Answer format: number, then unit.

Completed entries (count: 7):
> print(dat)
                                 smiles.str                              study.target    reported
1  C[N+]1(CCNC(=O)c2cnc3c4c(cccc24)-c2ccccc2C3=O)CCOCC1  Acetylcholinesterase (Electrophorus electricus, UniProt O42275)     1.24 µM
2  C[N+]1(CCC(=O)Nc2ccc3c(c2)C(=O)c2cccc4ccnc-3c24)CCCCC1  Acetylcholinesterase (Electrophorus electricus, UniProt O42275)  0.00048 µM
3              O=C1c2ccccc2-c2cccc3ccnc1c23  Acetylcholinesterase (Electrophorus electricus, UniProt O42275)     10.6 µM
4  C[N+]1(CCCNC(=O)c2cnc3c4c(cccc24)-c2ccccc2C3=O)CCOCC1  Acetylcholinesterase (Electrophorus electricus, UniProt O42275)     1.05 µM
5  O=C(NCCCO)c1cnc2c3c(cccc13)-c1ccccc1C2=O  Acetylcholinesterase (Electrophorus electricus, UniProt O42275)     12.2 µM
6  CC[N+](C)(CC)CCNC(=O)c1cnc2c3c(cccc13)-c1ccccc1C2=O  Acetylcholinesterase (Electrophorus electricus, UniProt O42275)     1.71 µM
7  CC[N+](C)(CC)CCC(=O)Nc1ccc2c(c1)C(=O)c1cccc3ccnc-2c13  Acetylcholinesterase (Electrophorus electricus, UniProt O42275)  0.00262 µM

Below: the item to evaluate.
Task: Given C[N+]1(CCNC(=O)c2cnc3c4c(cccc24)-c2ccccc2C3=O)CCCCC1 , state its recorded IC50.
Result: 0.35 µM

Reference source: ChEMBL document CHEMBL1158399
